# Target Or Test System: T1, PAC1 receptor (UniProt P41586 21-468, limits assumed)
# T1 sequence (looked up): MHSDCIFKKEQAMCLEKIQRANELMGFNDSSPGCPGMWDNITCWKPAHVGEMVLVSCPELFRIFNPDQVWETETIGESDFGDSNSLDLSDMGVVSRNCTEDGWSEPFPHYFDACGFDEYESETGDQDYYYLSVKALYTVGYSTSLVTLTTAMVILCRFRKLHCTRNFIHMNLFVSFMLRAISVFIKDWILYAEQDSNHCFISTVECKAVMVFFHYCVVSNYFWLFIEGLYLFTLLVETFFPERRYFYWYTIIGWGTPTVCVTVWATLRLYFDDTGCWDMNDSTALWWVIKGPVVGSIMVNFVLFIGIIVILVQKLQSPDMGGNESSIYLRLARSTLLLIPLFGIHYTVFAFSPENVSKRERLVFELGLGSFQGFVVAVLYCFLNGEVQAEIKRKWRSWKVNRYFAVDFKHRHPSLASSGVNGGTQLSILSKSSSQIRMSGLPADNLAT
# Protocol Text: cell-based or functional assay
Measurement Label: EC50 (PAC1R), cAMP inducing effect (nM)

Past entries and their recorded results:
HSXGIFTXSYSRYRKQLAVKKYLAAVL (N-terminal mesyl (Ms-); Tz (aspartic acid with carboxyl group replaced by tetrazole) at positions 3 and 8; C-terminal amide (NH2)) [Peptide 12] ... 0.023
HSXGIFTXSYSRYRKQLAVKKYLAAVA (N-terminal acetyl (Ac-); Tz (aspartic acid with carboxyl group replaced by tetrazole) at positions 3 and 8; C-terminal amide (NH2)) [Peptide 20] ... 0.08
HSXGIFTXAYSRYRKQLAVKKYLAAVL (N-terminal acetyl (Ac-); Tz (aspartic acid with carboxyl group replaced by tetrazole) at positions 3 and 8; C-terminal amide (NH2)) [Peptide 15] ... 0.061
HSXAIFTXSYSRYRKQLAVKKYLAAVL (N-terminal acetyl (Ac-); Tz (aspartic acid with carboxyl group replaced by tetrazole) at positions 3 and 8; C-terminal amide (NH2)) [Peptide 23] ... 0.079
HSXGIFTXSYSRYRKQMAVKKYLAAVL (N-terminal acetyl (Ac-); Tz (aspartic acid with carboxyl group replaced by tetrazole) at positions 3 and 8; C-terminal amide (NH2)) [Peptide 10] ... 0.076

a. HSXGIFTXSYSRYRKALAVKKYLAAVL (N-terminal acetyl (Ac-); Tz (aspartic acid with carboxyl group replaced by tetrazole) at positions 3 and 8; C-terminal amide (NH2)) [Peptide 17]
b. HSXGIFTXSYSRYRKQXAVKKYLAAVL (N-terminal mesyl (Ms-); Tz (aspartic acid with carboxyl group replaced by tetrazole) at positions 3 and 8; norleucine at position 17; C-terminal amide (NH2)) [Peptide 11]
c. HSXGIFTXSYARYRKQLAVKKYLAAVL (N-terminal acetyl (Ac-); Tz (aspartic acid with carboxyl group replaced by tetrazole) at positions 3 and 8; C-terminal amide (NH2)) [Peptide 16]
Enquiry: Given 3 binders, produce a descending ranking by EC50 (PAC1R), cAMP inducing effect. Return the labels ranked in the requested order, please.
Return: c, a, b

P. HSDGIFTXSYSRYRKQMAVKKYLAAVL (Tz (aspartic acid with carboxyl group replaced by tetrazole) at position 8; C-terminal amide (NH2)) [Peptide 4]
Q. HSXGIFTXSYSRYRKQLAAKKYLAAVL (N-terminal acetyl (Ac-); Tz (aspartic acid with carboxyl group replaced by tetrazole) at positions 3 and 8; C-terminal amide (NH2)) [Peptide 19]
Enquiry: I'm curious whether P or Q has the smaller EC50 (PAC1R), cAMP inducing effect number. Which is it? Please respond with the label that marks your chosen entry.
Return: P
(P: 0.04 nM, Q: 0.094 nM)
